system: OVCAR-3; test: NCI tumour cell line growth inhibition, 48 h
The source made the active and inactive calls. Rule as the data show it: active = GI50 up to about 1.1 µM and inactive = higher.
Outcomes: active, inactive

• O=C(OCc1ccccc1)N1CCNCCNCC1 = inactive
• O=C1C[C@H](c2ccccc2)O[C@@H](c2ccccc2)C1 = inactive
• COc1ccc2oc(=O)c(-c3nc4ccccc4s3)cc2c1 = inactive
• COc1cccc([C@H]2C/C(=N\NC(=O)C(=O)N[C@@H](C)c3ccccc3)c3ccccc3N2)c1 = active
• NNC(=O)c1nn[nH]c1SSc1[nH]nnc1C(=O)NN = inactive
• CCCC/C=C/C1Cc2ccccc2CN1S(=O)(=O)c1ccc(C)cc1 (stereo unspecified) = inactive
